Origin of the recorded values: the supplement of paper PMC9170038

// reported apparent KD of K4 kissing-loop reporter per item
# Test system: K4 kissing-loop RNA reporter
# experiment.notes: apparent KD of K4 kissing-loop reporter; higher = weaker reporter binding
# test.context: Eterna round: R107; input ligand: arginine 13.2 mM
Answer with the number, then the unit.

For orientation, consider the following solved cases.
UUUUUGGAGAAUUAUAGUGAUGUUAUGAAGGAGGAUAUCUGGAGAUGGAGAAGGCCUAGUGGCUCAGCCCUGGAGGGUGGGUGGG [ExFMNA.aB]
562 nM
CGCAGUGAUGUUGCGAGUUCAUUCAGGGAAGGAGCGCCACAGAUGGCAGGUAGGUCGCCCACGCAGUGAUGUUGUGUAUUCGGGU [Exclusion Arginine A GF 2]
153 nM

Request: Reported apparent KD of K4 kissing-loop reporter for K4 kissing-loop RNA reporter, given AUACGUUUCAGAGGAUAUCGGAGGAGAGUGAUGUUCUCCCAUAGCCCAGUGAUGUUGGAAGCUAUCCGAGAAGGCUGUGGGCGUA [Same State FMN B GF 15] ?
Result: 174 nM

====

# Tested on: K4 kissing-loop RNA reporter
# experiment.notes: apparent KD of K4 kissing-loop reporter; higher = weaker reporter binding
# test.context: Eterna round: R107; input ligand: tryptophan 2.4 mM
metric: apparent KD of K4 kissing-loop reporter (nM)
Report the figure in nM without appending any unit label.

Worked examples follow.
UGUCAUUGGUCUGAUACCAGCUUGAUCGGAAAACGAUCUGCUGGAGUGAUGUUCCAAUAAAGCCCUUGGCAGCAGACCGAUGACU [TheoBS 7 #SwitchBubble #StaticStem]
763
UGAUACCAGACGGCCGCCACUCCCGUAAGUCAAAGACUUACCAAGAGUAUCGUCCAGUGAUGUUGGAGGACCGGGUCUGGUAUCU [FiskerMod 9 - Jieux - Exclusion - Tryptophan B]
829

Now consider the entry below.
Request: # query: apparent KD of K4 kissing-loop reporter of entry ACGUGCCCAGUGAUGUUGGAUAAAUAUGAAGGAGCGUGCGAAAGCACAGGUAGGUCGCAUAAUAGCACGAGCCACGAAAGUGGCA [#SwitchBubble 7 #K4Early #Sliding]
Result: 134

====

# System: K4 kissing-loop RNA reporter
# experiment.notes: apparent KD of K4 kissing-loop reporter; higher = weaker reporter binding
# test.context: Eterna round: R107; input ligand: FMN 200 uM
As shown below, each of these sequences has a reported apparent KD of K4 kissing-loop reporter value.
Your answer should be a plain number; it is taken to be in nM.

Some solved entries appear below for comparison.
GCGGCCCAGCCGGAUACCAGUGACCCGCUGGGAACCGCGGGCCCAGAGUGAUGUUCGGGACACCCUUGGCAGCCGCCUGGGACGC [#2 Same State - Theophylline B Attempt #17 (HarryS)]
588
AGCGAGUGAUGUUCGCUGAUCAUGAGAAGUUAGGAUAUAUACUUGCAUAGAAGGAACUAUUUCAUGACAUUAGAGGCAGUAGUUC [FMN A SS t7]
159
UGAACCCGGUCGGCCGCCACUCUGAGAACCAUCGCCCUACGUGCAGUGAUGUUGUACCUAAUGAGGAGGACCGGGACUGGGCGGC [theeternabot_sameState_KL_Trp_B_36]
316

Request: What value of apparent KD of K4 kissing-loop reporter has been recorded for this entry: GACCUAAGCUAUGAUACCAGUCUGGCACGAAGAAGUGAUGUUUCCCAGCGUUUGUCACUUGACCCUUGGCAGCAUGCGAUCAGCU [theeternabot_sameState_KL_Theo_B_29]
Result: 197

Request: Then this sequence: AGACUACUGAUAGGAUAUAACAUCCUAGUCGUAUACCGAAAGGUAUACGAAACCCUUCUAGUGAUGUUAGAAGGGUCGGUAGUCA [Omei KL FMN B Exc B v9]
Result: 79.8

Request: Record: AGUGAUGUAUGGCGGUGUGUCGCUUAAAAUCAGGAUAUAUAAACAAAUAGAAGGGAUGGCGGAGUGAUGUUCCGCCGGCCGCCAU [FMN A Exl V2]
Result: 127

====

# Test system: K4 kissing-loop RNA reporter
# experiment.notes: apparent KD of K4 kissing-loop reporter; higher = weaker reporter binding
# test.context: Eterna round: R107; input ligand: arginine 13.2 mM
metric: apparent KD of K4 kissing-loop reporter (µM)
# value in µM; strip the unit string

Request: Give its apparent KD of K4 kissing-loop reporter value. Item: AUUCGUUUAUGUGAUACCAGACUUUGCAGUGAUGUUGCAUUAAUUAUUGAUGAUUAGUUUGUCCCUUGGCAGCACUAUUUAUUUA [JR_SSTheophyB_Sub003]
Result: 0.105

Request: Another sequence to look at: GACGUUGAAGCGGCCGCCACUAGGAAGGGUACGGAGAGUACAUCUCACGGAGAGUGAUGUUCUCAUAGGACCGGGCUCAUAUCAA [theeternabot_sameState_KL_Trp_B_21]
Result: 0.215

Request: And the next one, UAUAUAGUGACGGCCGCCACUAUUGUGAUUUAAUUGUUAGAGUGAUGUUUUGUUGUUUGAUUUUGUAGGACCGGGUUAUAUGUUA [vnbbwzmullin] ?
Result: 0.851

Request: Another sequence to check: UUUAUUAAGACGGCCGCCACUGAUUCAUAGUGAUGUUAUGAUAUAAUCUUAGUGAUAUUUAUAAACAGGACCGGGUCAAUUAUUA [JR_SSTryptoB_Sub026]
Result: 0.173

Request: Try the sequence UUAGCUCUAUAGAGCAAGAGGUAUACUGAUACCAGAGGCUAUAGCCUCCCUUGGCAGCGGAACGAGUGAUGUUCGAAACCUCAUU [AK5 SS Theophylline A]
Result: 0.898

Request: CAUAUAUAUAGAGGAUAUCGAGUAGAGUGAUGUUCUGCCUGGGUUGGCUCGCAAGGGCCUUCCCAGCGAGAAGGCUAUAUAUAUG [harrys-mod#1ED5.33] , same question.
Result: 0.399

====

# System: MS2 coat protein
# experiment.notes: apparent KD of MS2 coat protein; designed switch direction (-1 OFF switch, 1 ON switch): 1; higher = weaker reporter binding
# test.context: Eterna round: R95; input ligand: none
metric: apparent KD of MS2 coat protein (nM)
# unit: nM | format: bare number

Here's what some known entries look like.
UGUCCAGCCUGAGCUGGACAAAAGCAUGUACAUGAGGAUCACCCAUGUUCAUGUACAAGCUUUUUGCUCGUCUUAGA [salish99_208a_r3_064] (puzzle: Sensor for hsa-mir-208a)
587
GUAAAACAUGAGGAUCACCCAUGUCAACAAAGUCGAGGAUAUGGGCAAAUAAAAUAAGAACCAGAAGGCGAAUAAC [salish99_SS1_r3_010] (puzzle: Same State 1)
371
AGUCCAGCCUGAGCUGGACUGAAGCAUGUACAUGAGGAUCACCCAUGUUCAUGUGCAGGCUUUUUGCUCGUCUUAUG [JL-shm-2.01 JL mod] (puzzle: Sensor for hsa-mir-208a)
108
AGUCCAGCCUGAGCUGGACGAAAGCAUGUACAUGAGGAUCACCCAUGUCAUGUACAAGCUUUUUGCUCGUCUUAAAA [Zipper 46 - 4] (puzzle: Sensor for hsa-mir-208a)
532

Query sequence follows.
Request: Record request: apparent KD of MS2 coat protein value, item AGAGAACAUGAGGAUCACCCAUGUGGGAUGGGCAUAGGAUAUAGAGGAGAGAGGGAGGAACUAGAAGGAUGAUGGA [JR_SS1_Sub079] (puzzle: Same State 1)
Result: 50.3

====

# Test system: K4 kissing-loop RNA reporter;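 note: bound reporter read as fluorescence of individual clusters on recovered sequencing chips by microscopy, with normalized cluster intensities fitted with a binding model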
# experiment.notes: apparent KD of K4 kissing-loop reporter; higher = weaker reporter binding
# test.context: Eterna round: R107; input ligand: none
Where apparent KD of K4 kissing-loop reporter equals or exceeds 200 nM, the correct label is t; where it does not, the label is f.

UUUAUUAAGACGGCCGCCACUGAUUCAUAGUGAUGUUAUGAUAUAAUCUUAGUGAUAUUUAUAAACAGGACCGGGUCAAUUAUUA [JR_SSTryptoB_Sub026]
f
AGCCGUCUAAGUGAUGUUUAGGCAUGUCAGCGAGGACCGGUACGGCCGCCACUCGUGCUAUUGAGAUUUCGGGUAGCCCACGUAG [theeternabot_sameState_KL_Trp_A_20]
t
ACGUAGUUCUAGGAUACCAGCCAAGGAGGGUAGGACAAAAGUCCUGUAGCCAGUGAUGUUGGCCCUUGGCAGCCUAGAACUACGA [Omei KL Theo B Exc B v3]
f
AGGCACGAGCAAGGAUAUUGAGUAGAGUGAUGUUCUGCCUGGGUUGGCUCGUAAGAGCCUUCUCAGCGAGAAGGUGCUCGUGCCU [#2 Same State - FMN A Attempt #23 (HarryS)]
t
UGAUAGGACAGAAGGAGCGGGAGUGAUGUUCCCAAAAGUAUAAGGUGUCAAAAGACACCCUCCCAGGUAGGUCGCUGUCCUAUCU
t

Request: Quick check: does UGAUUUAACUGAAGGAGCGGCAAUUGAUAAGGAAAUAUAGUGAUGUUAUAUAAGAGAGAGAGCCAGGUAGGUCGCAGAGGGAGGA [ExArgB.H] have apparent KD of K4 kissing-loop reporter greater than or equal to 200 nM?
Result: f
